Each entry below carries its recorded IC50.
system name: AKT2 (Homo sapiens)
Construct: expressed in transfected cells; host or cells: HEK293
Sequence (P31751 whole entry): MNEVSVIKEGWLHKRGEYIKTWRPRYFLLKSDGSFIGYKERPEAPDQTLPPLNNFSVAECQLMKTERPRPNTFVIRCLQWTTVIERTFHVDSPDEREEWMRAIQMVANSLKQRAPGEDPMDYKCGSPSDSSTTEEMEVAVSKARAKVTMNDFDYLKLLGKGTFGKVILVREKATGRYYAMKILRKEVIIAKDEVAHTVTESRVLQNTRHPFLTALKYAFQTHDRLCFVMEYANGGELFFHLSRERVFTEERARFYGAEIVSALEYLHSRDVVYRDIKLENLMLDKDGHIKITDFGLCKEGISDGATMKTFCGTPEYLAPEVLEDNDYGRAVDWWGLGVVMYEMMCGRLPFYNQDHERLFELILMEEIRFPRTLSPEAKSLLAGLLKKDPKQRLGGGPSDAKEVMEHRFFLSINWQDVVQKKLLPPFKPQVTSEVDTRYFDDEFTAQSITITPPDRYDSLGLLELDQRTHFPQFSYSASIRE
experimental details: Live cell target engagement by NanoBRET competitive probe displacement, AKT2
Assay type: binding
setup conditions: transfected HEK293 cells, 2 h at 37° C., read-out: AKT2 IC50: GeoMean IC50

{"compound": "[N-]=[N+]=Nc1c(C(=O)N[C@H]2CCc3cc(-n4c(-c5cccnc5N)nc5ccc(-n6cccn6)nc54)ccc32)cc(C=O)c(O)c1F", "IC50": "100 to 2000 nM"}
{"compound": "CC(=O)Nc1ccc(C(=O)N[C@H]2CCc3cc(-n4c(-c5cccnc5N)nc5ccc(C)nc54)ccc32)cc1C=O", "IC50": "≥ 2000 nM"}
{"compound": "Nc1ncccc1-c1nc2ccc(-n3cccn3)nc2n1-c1ccc2c(c1)CC[C@@H]2n1c(=O)[nH]c2cc(O)c(C=O)cc2c1=O", "IC50": "≥ 2000 nM"}
{"compound": "Nc1ncccc1-c1nc2ccc(-n3cccn3)nc2n1-c1ccc2c(c1)CC[C@@H]2NC(=O)c1cc(C=O)c(O)c(F)c1Cl", "IC50": "100 to 2000 nM"}
{"compound": "Nc1ncccc1-c1nc2ccc(-n3cc(F)cn3)nc2n1-c1ccc2c(c1)CC[C@@H]2NC(=O)c1ccc(O)c(C=O)c1", "IC50": "100 to 2000 nM"}
{"compound": "Nc1ncccc1-c1nc2ccc(-c3ccccc3)nc2n1-c1ccc2c(c1)CCC2C(=O)NCc1ccc(C=O)c(O)c1 (stereo not shown)", "IC50": "100 to 2000 nM"}
{"compound": "Nc1ncccc1-c1nc2ccc(Cl)nc2n1-c1ccc2c(c1)CC[C@@H]2NC(=O)c1ccc(O)c(C=O)c1", "IC50": "≥ 2000 nM"}
{"compound": "Cn1c(=O)[nH]c2c(C=O)cc(C(=O)N[C@H]3CCc4cc(-n5c(-c6cccnc6N)nc6ccc(-n7cccn7)nc65)ccc43)cc21", "IC50": "100 to 2000 nM"}
{"compound": "Nc1ncccc1-c1nc2ccc(-c3nccnc3F)nc2n1-c1ccc2c(c1)CC[C@@H]2NC(=O)c1ccc(O)c(C=O)c1", "IC50": "100 to 2000 nM"}
{"compound": "Nc1ncccc1-c1nc2ccc(-n3cc4c(n3)COC4)nc2n1-c1ccc2c(c1)CC[C@@H]2NC(=O)c1ccc(O)c(C=O)c1", "IC50": "100 to 2000 nM"}
{"compound": "Cc1cc2nc(-c3cccnc3N)n(-c3ccc4c(c3)CC[C@@H]4NC(=O)c3ccc(O)c(C=O)c3)c2nc1-n1cccn1", "IC50": "100 to 2000 nM"}
{"compound": "Nc1ncccc1-c1nc2c(-n3cn[nH]c3=O)cc(-n3cccn3)nc2n1-c1ccc2c(c1)CC[C@@H]2NC(=O)c1ccc(O)c(C=O)c1", "IC50": "100 to 2000 nM"}
{"compound": "Nc1ncccc1-c1nc2ccc(-c3nc(C(F)F)cs3)nc2n1-c1ccc2c(c1)CC[C@@H]2NC(=O)c1ccc(O)c(C=O)c1", "IC50": "100 to 2000 nM"}

---

system name: AKT2 (Homo sapiens)
experimental details: Live cell target engagement by NanoBRET competitive probe displacement, AKT2
setup conditions: transfected HEK293 cells, 2 h at 37° C., read-out: AKT2 IC50: GeoMean IC50

{"structure string": "CN(C)C(=O)Nc1ccc(C(=O)N[C@H]2CCc3cc(-n4c(-c5cccnc5N)nc5ccc(-n6cccn6)nc54)ccc32)cc1C=O", "system name": "AKT2 (Homo sapiens)", "IC50": "100 to 2000 nM"}
{"structure string": "Nc1ncccc1-c1nc2cc(O)c(-n3cccn3)nc2n1-c1ccc2c(c1)CC[C@@H]2NC(=O)c1cc(C=O)c(O)cc1F", "system name": "AKT2 (Homo sapiens)", "IC50": "100 to 2000 nM"}
{"structure string": "Nc1ncccc1-c1nc2ccc(-n3ncc4c3COC4)nc2n1-c1ccc2c(c1)CC[C@@H]2NC(=O)c1ccc(O)c(C=O)c1", "system name": "AKT2 (Homo sapiens)", "IC50": "100 to 2000 nM"}
